Just for reference, PubChem BioAssay AID1745847 is where these values come from.

Assay: CMV-Luciferase Counterscreen for Inhibitors of ATXN expression; also: nearly all actives have a fitted effect of over 55% in size
Conditions: HEK-293 CMV-luciferase reporter, luminescence, 24 h; series mostly up to 57.5 µM
Screen size: about 2,100 compounds; about 670 (32%) were called active. Another 50% or so got no clear call; they are omitted. Calls follow the shape of the dose curve; as a rule, active = well fitted inhibition curve with a large enough effect; inconclusive = small, poorly fitted or top-dose-only effect; inactive = no such curve, though single readings can be large or run the other way. The list shows a part of the results.
Outcome codes: true (1) for active, false (0) for inactive

- CC(=O)Oc1ccc(C23c4ccccc4C2(OC(C)=O)c2cc(OC(C)=O)ccc23)cc1 (configuration not stated): true (1)
- CC(C)CCn1c(N)c(S(=O)(=O)c2cccs2)c2nc3ccccc3nc21: true (1)
- CCOC(=O)c1ccc(/C=C2/C=C(c3ccccc3)N(c3ccc(Cl)c(C(=O)O)c3)C2=O)cc1: true (1)
- Cc1ccc(S(=O)(=O)Nc2ccc(O)c3cccnc23)cc1: true (1)
- Cn1nnnc1Sc1ncnc2scc(-c3ccc[nH]3)c12: true (1)
- Cc1ccc(S(=O)(=O)Nc2cccc3cccnc23)c([N+](=O)[O-])c1: false (0)
- CN(C)c1ccc2c(c1)OC(N)=C(C#N)C2c1cccc(F)c1 (configuration not stated): false (0)
- Cc1nnc(SC(C)C(=O)Nc2ccc(Cl)cn2)n1Cc1ccccc1 (configuration not stated): false (0)
- O=C(NNC(=O)C12CC3CC(CC(C3)C1)C2)c1ccccn1: true (1)
- Cc1sc2ncnc(NCC(O)c3ccc([N+](=O)[O-])cc3)c2c1C (configuration not stated): true (1)
- Cn1nnnc1Sc1ncnc2scc(-c3cccs3)c12: true (1)
- CCC(CC)C(=O)c1c[nH]c(C(=O)NCc2ccccn2)c1: false (0)
- CS(=O)(=O)Nc1cccc(NC(=O)c2cccc3c(-c4cccc(C(N)=O)c4)coc23)c1: false (0)
- CC1(C)C(C=C(Cl)Cl)C1C(=O)Nc1ccc([N+](=O)[O-])cc1 (configuration not stated): true (1)
- Cc1ccc(/C=N/Nc2ccnc3cc(Cl)ccc23)c(C)c1: true (1)
- CN1CCC[C@H]1CCNc1ccc2c(=O)c3ccccc3n(C)c2c1: false (0)
- C=CCn1c(COc2ccccc2)nnc1SCC(=O)N/N=C/c1cc(Cl)ccc1O: false (0)
- CN(C)CCCNC(=O)/C=C/c1ccc(OCc2c(F)cccc2Cl)cc1: false (0)
- CC(C)(CO)NCc1c(OCc2ccc(Cl)cc2)ccc2ccccc12: false (0)
- O=C(COc1ccc(Br)cc1CO)Nc1ccc(S(=O)(=O)N2CCCCC2)cc1: true (1)
- COc1cc(C(=O)N/N=C(\c2ccccc2)c2ccccn2)cc(OC)c1OC: true (1)
- O=C(N/N=C(\c1ccccc1)c1ccccn1)c1ccccc1Cl: true (1)
